- System: HCT-116 colon
- Assay Explanation: NCI tumour cell line growth inhibition, 48 h; in the data active = GI50 below about 0.43 µM; inactive = the rest
Possible outcomes: t (active), f (inactive)

Compound: COc1cc(/C=C\c2cc(OC)c(OC)c(OC)c2)cc(NS(=O)(=O)c2cccc(Cl)c2)c1OC
Group: t
--
Compound: O=C(Nc1cccc([N+](=O)[O-])c1)c1cc2ccccc2cc1O
Group: f
--
Compound: C[C@H]1CCC/C=C/[C@@H]2C[C@H](O)C[C@H]2[C@H](O)[C@@H](SC2OC(CO)C(O)C(O)C2O)CC(=O)O1 (stereo partly specified)
Group: f
--
Compound: N#CC1CCc2c(c(-c3cn[nH]c3C(F)(F)F)nc3c(F)cc4[nH]ncc4c23)C1 (stereo unspecified)
Group: f
--
Compound: NC(=S)N/N=C\c1nccc2c(C(F)(F)C(F)(F)C(F)(F)F)cccc12
Group: t
--
Compound: CCC1OC(/C(C)=C/C(C)/C=C/C2C(C)C2/C=C/C2OC(CC(=O)O)CC(O)C2O)CC=C1C (stereo unspecified)
Group: f
--
Compound: C(#Cc1ccccc1C#Cc1ccccn1)c1ccccn1
Group: f
--
Compound: N#C/C(=C\c1cccnc1)c1nc2ccccc2o1
Group: f
--
Compound: Cn1c(O)c(N=NC(N)=S)c2ccccc21
Group: f
--
Compound: O=c1oc2cc(OS(=O)(=O)c3ccccc3)ccc2c2c1CCCCC2
Group: f
--
Compound: N#Cc1ncc(N2C(=O)C3(CCC3)N(c3ccc(OC4CCNCC4)nc3)C2=S)cc1C(F)(F)F
Group: f
--
Compound: S=C(Nc1ccccc1)N1CCn2c1nsc2=Nc1ccccc1
Group: f
--
Compound: Cc1[nH]n(-c2ccccc2)c(=O)c1C(=O)c1ccccc1
Group: f
--
Compound: O=C(c1ccccc1)c1ccccc1C(=O)c1ccccc1
Group: f
--
Compound: CN(C)CCNc1c2c(c(NCCN(C)C)c3c(CO)c[nH]c13)C(=O)c1ccccc1C2=O
Group: f
--
Compound: CC[C@H](C)[C@H](NC(=O)c1nccn1C)C(=O)N(C)[C@H](C[C@@H](OC(C)=O)c1nc(C(=O)N[C@@H](Cc2ccccc2)C[C@H](C)C(=O)OC)cs1)C(C)C
Group: f

====

Entries annotated with measured TGI
- Tested on: A498 renal
- Assay Explanation: NCI tumour cell line growth inhibition, 48 h

Molecule: Cc1cc(Cl)ccc1NC(=O)NC(C)(C)COC(=O)Nc1cccc(Cl)c1
TGI: 21.8 µM

Molecule: C(#Cc1ccccc1C#Cc1ccccn1)c1ccccn1
TGI: 34.6 µM

Molecule: CC[C@H](C)[C@H](NC(=O)c1nccn1C)C(=O)N(C)[C@H](C[C@@H](OC(C)=O)c1nc(C(=O)N[C@@H](Cc2ccccc2)C[C@H](C)C(=O)OC)cs1)C(C)C
TGI: > 33.3 µM

Molecule: O=C(NCCCCNCCCNC(=O)OCc1ccccc1)OCc1ccccc1
TGI: 36.8 µM

Molecule: COc1cccc2ccc3c(c12)C(=O)OC31CCc2c(C)cccc21 (stereo not given)
TGI: 22.7 µM

Molecule: COC(=O)C12C3C4C1C1C2C3C41C(=O)N(C(C)C)C(C)C (stereo not given)
TGI: > 100 µM

Molecule: O=C(O)c1oc2cccc3c2c1CCC3
TGI: > 100 µM

Molecule: CCCCCCCCCCCCCCC(O)C1CCC(C(O)CCC(O)CCCCCC(O)CC2=CC(C)OC2=O)O1 (stereo not given)
TGI: 20.5 µM

Molecule: Cn1c(=O)c2sc3cc4c(cc3c2c2ccccc21)sc1c(=O)n(C)c2ccccc2c14
TGI: > 100 µM

Molecule: CCCNc1cccc(-n2ncc3c(N/N=C/c4ccncc4)ncnc32)c1
TGI: > 25 µM

# credit: PubChem BioAssay (NCI)
